System Under Test: Maltase-glucoamylase (Homo sapiens)
Method Summary: Inhibition of alpha glucosidase at 100 uM
Activity calls are given as the source filed them. No cut-off for these calls is given here.
Measurement Type: inhibition

{"columns": ["Molecule", "System Under Test", "inhibition"],
 "data": [
  ["C=C1CC[C@@H]2[C@](C)(CO)[C@H](O)CC[C@@]2(C)[C@@H]1/C=C/C1=CCOC1=O", "Maltase-glucoamylase (Homo sapiens)", "16.5%"],
  ["C=C1CC[C@@H]2[C@]3(C)COC(c4ccc(OC)cc4)O[C@@H]3CC[C@@]2(C)[C@@H]1C/C=C1/C(=O)OC[C@H]1O (stereo partly specified)", "Maltase-glucoamylase (Homo sapiens)", "13.2%"],
  ["CC(C)=C1C=C(/C=C/[C@@H]2[C@@]3(CC[C@@H]4[C@](C)(CO)[C@H](O)CC[C@]42C)CO3)C(=O)O1", "Maltase-glucoamylase (Homo sapiens)", "inactive"],
  ["C=C1CC[C@@H]2[C@]3(C)COC(c4ccccc4)O[C@@H]3CC[C@@]2(C)[C@@H]1C/C=C1/C(=O)OC[C@H]1O (stereo partly specified)", "Maltase-glucoamylase (Homo sapiens)", "48.9%"],
  ["C=C1CC[C@@H]2[C@](C)(CO)[C@H](O)CC[C@@]2(C)[C@@H]1/C=C/C1=CC(=C/c2ccc(Cl)cc2)/OC1=O", "Maltase-glucoamylase (Homo sapiens)", "inactive"]
]}

Here's the next entry for you.
Task: Data request, read-out inhibition, for `C=C1CC[C@@H]2[C@](C)(CO)[C@H](O)CC[C@@]2(C)[C@@H]1/C=C/C1=CC(=C/c2ccc(OC)cc2)/OC1=O`
Result: 100%
